Where do the numbers come from? From paper PMC11850406.

- testedSystem: HLA-A2402 (Homo sapiens, UniProt P04439, D101N/D140Y/D185E/E176V/E190D/F33S/G103R/G107R/I119L/I121M/I306V/K335N/L105A/L180Q/L300P/N151K/N90K/Q86E/Q94H/R106L/R138H/R89G/T104I/T345S/V100E/W191G/Y123F)
- protocolDescription: cell-based
- Format: binding
- conditionNotes: A2402; peptide 5 μM vs FITC-labeled reference peptide 300 nM, 24 h, 4°C, flow cytometry
Where no end group is shown, it is not given here.
Classification by inhibition at 5 µM follows these ranges: lower range (below 30%), middle range (30% to below 80%), upper range (80% or more)

Use these answered entries as a reference point.
               sequencedata    classlabel
0  VQMAVFIHNF [Peptide P64]  middle range
1   FYCNTTKLF [Peptide P49]  middle range
2   NYTNQIYEI [Peptide P47]   upper range

Assign a bin to MYSPVSILDI [Peptide P53] middle range

Which class holds PYNTPVFAI [Peptide P63] ? lower range
